Assay: In vivo pharmacokinetic time profile in rats (plasma and brain)
Details: male, Sprague Dawley, plasma; rat, PO administration, dose 3 (mg/mg); read-out: T½ (converted)
readout-type: half-life

INSERT INTO assay_data (smiles_text, test_value) VALUES
  ('Cc1cnc(CNC(=O)c2ccn(S(=O)(=O)c3ccc(F)cc3C)c2)cn1', '2 h');

---

Experiment: In vivo pharmacokinetic time profile in mice (plasma and brain)
Set-up: species or system mouse
Conditions: male, C57, plasma; mouse, SC administration, dose 3 (mg/mg), vehicle 10% HP-betaCD (Table 7)
readout-type: Cmax (ng/mL)

INSERT INTO assay_data (smiles_text, readout_type, test_value) VALUES
  ('Cc1ccc(S(=O)(=O)n2ccc(C(=O)NCc3ncco3)c2)cc1', 'Cmax', 3020);
